# TGT: T1, hVEGF-A K48A (human, UniProt P15692-4 34-135, K48A)
# T1 construct: position probably counted on the mature protein
# T1 sequence (looked up): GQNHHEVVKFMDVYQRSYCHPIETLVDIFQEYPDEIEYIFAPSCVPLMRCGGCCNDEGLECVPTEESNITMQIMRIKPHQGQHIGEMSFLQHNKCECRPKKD
# ASSAY_EXPLANATION: SPR
VALUE_KIND: pKd
Quick note: pKd values are minus log10 of concentrations in mol/L.

Query: Consider the binder GCNIMLPFWGCGRDFECLAGCVCQYYQSCG (designed binder) [VEGF_CKP9.54.90] and give its measured pKd.
Reply: 9.72

Query: Consider the binder GCDVMQPYWGCKQDSDCLAGCVCHWYNSCG (designed binder, also called EM63) [VEGF_CKP9.63] and give its measured pKd.
Reply: 7.55

Query: Consider the binder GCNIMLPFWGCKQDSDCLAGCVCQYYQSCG (designed binder, also called EM54) [VEGF_CKP9.54] and give its measured pKd.
Reply: 7.66

Query: Consider the binder GCDVMQPYWGCGPDIDCLAGCVCHWYNSCG (designed binder, also called L2.9.63.12) [VEGF_CKP9.63.12] and give its measured pKd.
Reply: 9.48

Data provenance is patent US20200325187A1.
